Source of measurements: ChEMBL document CHEMBL5291721

# target.or.test.system: Neuronal acetylcholine receptor subunit alpha-4 (Homo sapiens, UniProt P43681); note: assay procedure not described here
# Sequence (P43681 whole entry): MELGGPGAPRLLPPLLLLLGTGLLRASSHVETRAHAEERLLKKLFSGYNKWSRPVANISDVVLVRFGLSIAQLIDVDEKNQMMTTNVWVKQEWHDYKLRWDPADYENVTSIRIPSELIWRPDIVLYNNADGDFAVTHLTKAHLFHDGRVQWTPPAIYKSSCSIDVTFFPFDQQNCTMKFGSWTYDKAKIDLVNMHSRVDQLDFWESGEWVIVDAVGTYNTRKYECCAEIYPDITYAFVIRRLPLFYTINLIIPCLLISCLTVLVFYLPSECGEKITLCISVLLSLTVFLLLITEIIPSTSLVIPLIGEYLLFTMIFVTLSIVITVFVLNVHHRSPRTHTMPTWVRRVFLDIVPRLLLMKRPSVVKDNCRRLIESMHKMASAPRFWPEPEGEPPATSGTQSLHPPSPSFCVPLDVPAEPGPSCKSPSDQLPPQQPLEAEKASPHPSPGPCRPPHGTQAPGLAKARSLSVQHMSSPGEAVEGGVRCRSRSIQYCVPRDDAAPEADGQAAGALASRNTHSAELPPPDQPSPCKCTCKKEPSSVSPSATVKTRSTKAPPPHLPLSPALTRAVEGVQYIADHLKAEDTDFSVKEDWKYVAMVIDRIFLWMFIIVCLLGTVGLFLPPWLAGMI

molecule	AC50
CC[C@@H]1C(=O)OC[C@@H]1Cc1cncn1C	> 10 µM
CC(C)C(=O)c1c(C(C)C)nn2ccccc12	> 30 µM
COc1ccc(CCNCC(O)COc2cccc(C)c2)cc1OC (centres undefined)	> 10 µM
CCCC(=O)O[C@]1(C(=O)CO)CC[C@H]2[C@@H]3CCC4=CC(=O)CC[C@]4(C)[C@H]3[C@@H](O)C[C@@]21C [HYDROCORTISONE BUTYRATE]	> 10 µM
CCCCCCOc1ccccc1C(N)=O [EXALAMIDE]	> 30 µM
O=C(O)[C@H](CC(=O)N1C[C@H]2CCCC[C@H]2C1)Cc1ccccc1 [MITIGLINIDE]	> 10 µM
NC(=O)OCC(COC(N)=O)c1ccccc1 [FELBAMATE]	> 10 µM
C[C@]1(O)CC[C@H]2[C@@H]3CCC4=CC(=O)CC[C@]4(C)[C@@]3(F)[C@@H](O)C[C@@]21C	> 10 µM
COc1cc2nc(N3CCN(C(=O)c4ccco4)CC3)nc(N)c2cc1OC	> 10 µM

* * *

For reference, AC50 measured on Growth hormone secretagogue receptor type 1 (Homo sapiens, UniProt Q92847):
endpoint: AC50

molecule	endpoint	value.observed
CCOC(=O)OC(C)OC1=C(C(=O)Nc2ccccn2)N(C)S(=O)(=O)c2ccccc21 (configuration not stated)	AC50	> 30 µM
C[C@H](N)[C@H](O)c1cccc(O)c1	AC50	> 10 µM
O=C1Nc2ccc(Cl)cc2[C@@](C#CC2CC2)(C(F)(F)F)O1	AC50	> 30 µM
Cc1c(OCC(F)(F)F)ccnc1C[S+]([O-])c1nc2ccccc2[nH]1 (configuration not stated)	AC50	9.67 µM
CC[C@H]1[C@@H](O)[C@@H]2[C@H](CC[C@]3(C)[C@@H]([C@H](C)CCC(=O)O)CC[C@@H]23)[C@@]2(C)CC[C@@H](O)C[C@@H]12	AC50	> 30 µM
COCCCN1CCC(NC(=O)c2cc(Cl)c(N)c3c2OCC3)CC1 [PRUCALOPRIDE]	AC50	> 30 µM
COc1ccccc1OCCNCC(O)c1ccc(C)c(S(N)(=O)=O)c1 (configuration not stated)	AC50	> 30 µM
CNC(=O)c1ccccc1Sc1ccc2c(/C=C/c3ccccn3)n[nH]c2c1	AC50	> 30 µM
CCCN(CCC)C(=O)C(CCC(=O)O)NC(=O)c1ccccc1 (configuration not stated) [PROGLUMIDE]	AC50	> 30 µM
Clc1ccc(C(c2ccccc2Cl)C(Cl)Cl)cc1 (configuration not stated)	AC50	> 10 µM
CN1CCN(CC/C=C2/c3ccccc3Sc3ccc(S(=O)(=O)N(C)C)cc32)CC1	AC50	25.3 µM
CN(C)CCC=C1c2ccccc2C(C)(C)c2ccccc21	AC50	22 µM
OC(CNCC(O)C1CCc2cc(F)ccc2O1)C1CCc2cc(F)ccc2O1 (configuration not stated)	AC50	4.6 µM
Nc1nc(N)nc(-c2cc(Cl)ccc2Cl)n1	AC50	> 30 µM
CCc1c(Cl)c(O)c(Cl)c(O)c1C(=O)O[C@H]1[C@H](O)[C@H](OC)[C@H](OC/C2=C\C=C\C[C@H](O)/C(C)=C/[C@H](CC)[C@@H](O[C@@H]3OC(C)(C)[C@@H](OC(=O)C(C)C)[C@H](O)[C@@H]3O)/C(C)=C/C(C)=C/C[C@@H]([C@@H](C)O)OC2=O)O[C@@H]1C	AC50	> 30 µM
CCCCN1C[C@H](O)[C@@H](O)[C@H](O)[C@H]1CO	AC50	> 30 µM
COc1cc2nc(N(C)CCCNC(=O)C3CCCO3)nc(N)c2cc1OC (configuration not stated)	AC50	> 30 µM
